biological target: Cell-associated proTGFβ1 (hGARP-proTGFβ1 and hLRRC33-proTGFβ1); experiment: BLI (Octet)
Values of Cell AVRG (average KD) strictly less than 0.6 nM map to 1, and values of at least 0.6 nM map to -1.

>>> group("Ab29 (antibody, V domains shown) VH: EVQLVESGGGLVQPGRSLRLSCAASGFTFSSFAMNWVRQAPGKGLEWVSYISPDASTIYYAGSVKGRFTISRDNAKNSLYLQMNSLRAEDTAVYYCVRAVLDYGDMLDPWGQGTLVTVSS VL: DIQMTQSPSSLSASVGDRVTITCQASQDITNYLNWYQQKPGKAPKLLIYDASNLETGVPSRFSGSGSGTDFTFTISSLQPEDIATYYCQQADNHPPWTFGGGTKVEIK")
1
>>> group("Ab22 (antibody, V domains shown) VH: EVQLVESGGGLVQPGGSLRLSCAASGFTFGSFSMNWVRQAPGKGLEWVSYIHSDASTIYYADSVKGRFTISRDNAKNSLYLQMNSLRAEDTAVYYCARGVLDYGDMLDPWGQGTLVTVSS VL: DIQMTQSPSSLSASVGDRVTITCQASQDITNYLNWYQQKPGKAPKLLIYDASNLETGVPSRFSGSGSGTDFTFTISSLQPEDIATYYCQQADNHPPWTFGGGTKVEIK")
-1
>>> group("Ab23 (antibody, V domains shown) VH: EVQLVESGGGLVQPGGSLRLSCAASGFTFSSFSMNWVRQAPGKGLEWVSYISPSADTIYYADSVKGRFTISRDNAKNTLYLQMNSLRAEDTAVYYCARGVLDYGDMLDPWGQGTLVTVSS VL: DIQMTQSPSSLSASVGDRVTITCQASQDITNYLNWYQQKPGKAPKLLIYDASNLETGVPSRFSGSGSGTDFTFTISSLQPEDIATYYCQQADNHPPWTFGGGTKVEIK")
-1
